- EXPERIMENTAL_SYSTEM: human orexin-1 receptor (Homo sapiens, UniProt O43613)
- Construct: expressed in transfected cells; host or cells: CHO cells (G418 selection)
- Sequence (O43613 whole entry): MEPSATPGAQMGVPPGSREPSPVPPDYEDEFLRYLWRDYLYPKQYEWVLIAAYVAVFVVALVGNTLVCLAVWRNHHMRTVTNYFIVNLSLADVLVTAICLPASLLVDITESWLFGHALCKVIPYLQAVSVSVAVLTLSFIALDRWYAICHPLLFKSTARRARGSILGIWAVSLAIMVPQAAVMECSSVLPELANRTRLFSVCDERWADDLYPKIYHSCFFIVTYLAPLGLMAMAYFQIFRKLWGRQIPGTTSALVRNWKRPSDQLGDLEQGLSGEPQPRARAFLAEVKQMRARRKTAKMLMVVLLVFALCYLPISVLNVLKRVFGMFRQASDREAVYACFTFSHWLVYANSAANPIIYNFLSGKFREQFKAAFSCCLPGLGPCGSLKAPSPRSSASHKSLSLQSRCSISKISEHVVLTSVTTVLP
- PROCEDURE_DETAILS: FLIPR intracellular calcium assay, orexin receptor antagonistic activity, CHO cells expressing human orexin-1 receptor
- Format: cell-based
- CONDITION: measured with FLIPR 2, 3 nM orexin-A as agonist, read-out: OX1 IC50
Examples of compounds with documented pIC50 follow.
pIC50 is a log-scale quantity: -log10 of the concentration expressed in molar.

Cc1nc2sccn2c1C(=O)NC[C@@H]1CCCCN1C(=O)c1nc(-c2ccc(F)cc2)sc1-c1ccc(F)cc1 | 9.00

**Q:** Endpoint output: pIC50 of "Cc1cccc(-c2nc(C(=O)N3CCC[C@H]3CNC(=O)c3c(C)nc4sccn34)c(-c3ccc(F)cc3)s2)c1" . Value?
**A:** 9.00

**Q:** Same question for "Cc1ccc(-c2sc(-c3ccccc3)nc2C(=O)N2CCCC[C@H]2CNC(=O)c2c(C)nc3sccn23)cc1" please.
**A:** 8.70

**Q:** Same question for "COc1cccc(-c2nc(C(=O)N3CCCC[C@H]3CNC(=O)c3c(C)nc4sccn34)c(-c3ccc(F)cc3)s2)c1" please.
**A:** 8.70
